# t1/2 per record follows
# tgt: HLA-A*2402 (human)
# test-description: iTopia off-rate
measurement-name: t1/2

1. YLTKQVELL [cdr2 65-73 YLTKQVELL]; 0.22
2. YDHVFAEKI [cdr2 173-181 YDHVFAEKI]; 0.75
3. PFVNGVEKL [cdr2 266-274 PFVNGVEKL]; 0.49
4. PFKEPSQSL [cdr2 282-290 PFKEPSQSL]; 1.25
